Method: Pharmacokinetic study, single intravenous dose, non-compartmental model
Format: in vivo
Conditions: mouse, blood, single 2 mg/kg intravenous dose, mice
Quantity name: half-life (h)
Numeric answer only, unit h assumed.

[ask] Fill blank: measured half-life of the molecule NNC(=O)CSc1nc2scc(-c3ccccc3)c2c(=O)n1-c1ccccc1 [LDN-27219] is ____.
[reply] 4.89

---

Method: Pharmacokinetic study, single intravenous dose, non-compartmental model
Type: in vivo
Conditions: mouse, blood, single 2 mg/kg intravenous dose, mice, read-out: Volume of distribution
Quantity name: Vd
Form entry: enter the amount, then its unit.

[ask] Fill blank: measured Vd of the compound NNC(=O)CSc1nc2scc(-c3ccccc3)c2c(=O)n1-c1ccccc1 [LDN-27219] is ____.
[reply] 21.4 L/kg
